assay: chemical genetic growth profiling, strain panel (AID 1159580);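 note: tested at 20 µM; growth read once vehicle control cultures reached saturation at 30 °C; 1 = growth at the plate median or of vehicle wells; lower values mean less growth of the strain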; conditions: S. cerevisiae deletion strains, growth OD, locus YGR092W, strain DBF2, stronger effect = lower value
In all, about 5,500 compounds went through this assay and about 2,000 (36%) were called active. About 18% were inconclusive and are not listed. The list shows a part of the results.
We begin with a simple list: items and their reported normalized growth.

MOLECULE: O=S(=O)(Nc1ccc(Oc2ccc(OC(F)(F)F)cc2)cc1)c1cccc(Cl)c1
normalized growth: 0.937
--
MOLECULE: CC1C/C(=N/Nc2ccc(Br)cc2)c2cc(Cl)ccc2S1 (stereo not given)
normalized growth: 0.125
--
MOLECULE: COc1ccc(C(=O)NCc2csc3ccc(Cl)cc23)cc1OC
normalized growth: 0.981
--
MOLECULE: CS(=O)(=O)c1sc(C(=O)Sc2ccc(Cl)cc2)c2c1C=CCC2
normalized growth: 0.174
--
MOLECULE: Oc1ccc(N=Nc2ccccn2)c(O)c1
normalized growth: 0.0944
--
MOLECULE: O=C1/C(=C/c2cccs2)COc2ccccc21
normalized growth: 0.684
--
MOLECULE: Cc1onc(-c2ccccc2)c1C(=O)Sc1ccc(C(F)(F)F)cn1
normalized growth: 0.799
--
MOLECULE: NNC(=O)c1csc(Cc2c(Cl)sc3ccc(Cl)cc23)n1
normalized growth: 0.969
--
MOLECULE: Cc1nn(Cc2nnc(SCc3cccc(C(F)(F)F)c3)o2)c(C)c1Br
normalized growth: 0.987
--
MOLECULE: COc1cc(CC/C(C)=N\O)ccc1OCc1ccc(Cl)c(Cl)c1
normalized growth: 0.824
--
MOLECULE: O=C(CCn1c(=O)oc2ccccc21)Sc1ccc(Cl)cc1Cl
normalized growth: 0.164
--
MOLECULE: CNC(=O)n1nc(C)c(Cc2csc3ccc(Cl)cc23)c1C
normalized growth: 0.949
--
MOLECULE: S=C(Nc1cc(Cl)c(Cl)cc1Cl)Nc1ccccc1Br
normalized growth: 0.77
--
MOLECULE: CS(=O)(=O)/C(C#N)=C/c1ccccc1OCc1c(Cl)cccc1Cl
normalized growth: 0.934
--
MOLECULE: O=C(NNc1ccc(Cl)cc1)c1ccc(F)cc1F
normalized growth: 0.345
--
MOLECULE: Cc1ccc(N2C(=O)CSC2c2ccc(Cl)c(Cl)c2)cc1Cl (stereo not given)
normalized growth: 0.935
--
MOLECULE: O=C1/C(=C/c2ccc(C(F)(F)F)cc2)COc2ccccc21
normalized growth: 0.719
--
MOLECULE: CC1(C)c2ccccc2N(CCC(N)=O)C12C=Cc1c(ccc3ccccc13)O2 (stereo not given)
normalized growth: 0.906
--
MOLECULE: COc1ccc(OC)c(-c2ccn[nH]2)c1OCc1ccccc1
normalized growth: 0.864
--
MOLECULE: COc1cc(CC/C(C)=N/O)ccc1OCc1ccc(Cl)cc1Cl
normalized growth: 0.952

###

assay: chemical genetic growth profiling, strain panel (AID 1159580);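 note: tested at 20 µM; growth read once vehicle control cultures reached saturation at 30 °C; 1 = growth at the plate median or of vehicle wells; lower values mean less growth of the strain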; settings: S. cerevisiae deletion strains, growth OD, locus YOR316C, strain cot1, stronger effect = lower value
Hit rate of the full screen: of about 5,500 compounds, about 2,000 (36%) were called active. About 18% were inconclusive and are not listed. Some of the results follow.
We begin with a simple list: items and their reported normalized growth.

COMPOUND: CN(C)CCOC(=O)COc1ccc(Cl)cc1
normalized growth: 1.02

COMPOUND: O=C(Nc1ccccc1)c1ccccc1O
normalized growth: 0.989

COMPOUND: CN(C)CCOC(=O)C(c1ccccc1)C1(O)CCCC1 (configuration not stated)
normalized growth: 1.02

COMPOUND: Cc1cc(O)c(C=O)c2c1C(=O)Oc1c(C)c(O)c3c(c1O2)C(O)OC3=O (configuration not stated)
normalized growth: 0.984

COMPOUND: Cc1cc(O)c(C=O)c2c1C(=O)Oc1c(COC(=O)/C=C/C(=O)O)c(O)c(C(=O)O)c(C)c1O2
normalized growth: 0.989

COMPOUND: CC(CCC(=O)O)[C@H]1CCC2C3CC[C@@H]4CCCC[C@]4(C)C3CC[C@@]21C (some centres not stated)
normalized growth: 0.985

COMPOUND: N#C/C(=C\c1cccc(O)c1)C(=O)O
normalized growth: 0.986

COMPOUND: CC(C)CCCC(C)C1CCC2C3CC[C@H]4CCCC[C@]4(C)C3CC[C@]12C (some centres not stated)
normalized growth: 0.981

COMPOUND: C[C@@H]1CC2C3C[C@H](F)C4=CC(=O)C=C[C@]4(C)[C@@]3(F)[C@@H](O)C[C@]2(C)[C@@]1(O)C(=O)COC(=O)C(C)(C)C (some centres not stated)
normalized growth: 1.01

COMPOUND: COC(=O)CCC(C)[C@H]1CCC2C3C(C[C@H](O)[C@@]21C)[C@@]1(C)CC[C@@H](O)C[C@H]1C[C@H]3O (some centres not stated)
normalized growth: 1.03

COMPOUND: NCC(CC(=O)O)c1ccc(Cl)cc1 (configuration not stated)
normalized growth: 0.986

COMPOUND: CN(C)N=Nc1nc[nH]c1C(N)=O
normalized growth: 0.997

COMPOUND: COc1cc(C(=O)O)c2c(c1C)OC(=O)c1c(C)cc(O)c(C=O)c1O2
normalized growth: 0.977

COMPOUND: O=C(O)CCCOc1ccc(Cl)cc1Cl
normalized growth: 1.01

COMPOUND: CC[C@H](CCC(C)[C@H]1CCC2C3CCC4C[C@@H](O)CC[C@]4(C)C3CC[C@@]21C)C(C)C (some centres not stated)
normalized growth: 1.01

COMPOUND: Cc1cccc(Nc2ccncc2S(=O)(=O)NC(=O)NC(C)C)c1
normalized growth: 1.02

COMPOUND: CC1CCC2(OC1)OC1CC3C4CCC5C[C@@H](O)CCC5(C)C4=CCC3(C)C1[C@@H]2C (some centres not stated)
normalized growth: 0.959

From: PubChem BioAssay AID1159580
